Every entry's value here was drawn from the SangsterLogP compilation.

experiment.notes: method code SF-HPLC, from DOI: 10.1002/jps.2600740210, PMID: 3989684
condition.set: pH 7.7
Label rule met when logD < 0.9; otherwise rule not met.

Ask: For this molecule, is logD lower than 0.9? CCOc1ccc2nc(S(N)(=O)=O)sc2c1
Result: rule not met

Ask: For this molecule, is logD lower than 0.9? CC(=O)Nc1ccc2nc(S(N)(=O)=O)sc2c1
Result: rule met

Ask: For this molecule, is logD lower than 0.9? NS(=O)(=O)c1nc2c(Cl)cc(Cl)cc2s1
Result: rule not met

Ask: For this molecule, is logD lower than 0.9? Nc1ccc2nc(S(N)(=O)=O)sc2c1
Result: rule met

Ask: For this molecule, is logD lower than 0.9? NS(=O)(=O)c1nc2ccc(OCc3ccccc3)cc2s1
Result: rule not met

Ask: For this molecule, is logD lower than 0.9? NS(=O)(=O)c1nc2ccc(OCCO)cc2s1
Result: rule met

Ask: For this molecule, is logD lower than 0.9? NS(=O)(=O)c1nc2ccc(Cl)cc2s1
Result: rule not met

Ask: For this molecule, is logD lower than 0.9? NS(=O)(=O)c1nc2ccccc2s1
Result: rule not met
